The origin of these recorded values is a melting point compilation (Tetko et al.; mined from patent text by program, amines drawn as free bases though some values may be those of a salt).

# melting point values compiled below

Worked examples follow.
CSCC[C@H](NC(=O)[C@H](CC(C)C)NC(=O)OCc1ccccc1)C(=O)CSC
61 to 67 °C
COc1ccc(-c2ccc3c(c2)NC(=O)CC(c2cccc(-n4ccnc4)c2)=N3)cc1
207 to 208 °C
Cc1cccc(C)c1NC(=O)CCNCCNC(C)C
69.5 °C
COc1ccc(-c2cc(-c3ccc(O)c(F)c3)nc3c(Cl)cc(O)cc23)cc1
140 to 142 °C

So for CC(C)c1c(S(=O)(=O)c2ccc(O)cc2)cnn1C , the logged melting point turned out to be 209 to 210 °C

---

RECORDED ENDPOINT: melting point

COc1cc(NC(=O)Oc2ccccc2)ccc1S(=O)(=O)n1c(=O)n(C2CCCCC2)c2cc(Cl)ccc21
236 °C
CN1CCC(C2(O)c3ccccc3CCn3cc(-c4ccccc4)nc32)CC1 (stereo not drawn)
225 °C
Cn1ncnc1COc1nn2c(-c3ccc(F)cc3)nnc2cc1-c1ccsc1
268 to 269 °C
CCOC(=O)Cc1csc(NC(=O)NC)n1
158 to 159 °C
OC1COC(n2c(Cl)nc3cc(Cl)c(Cl)cc32)C(O)C1O (stereo not drawn)
184 °C

So for O[C@H](COc1cccc2[nH]ccc12)CN1CC=C(c2c[nH]c3c(Cl)cccc23)CC1 , the logged melting point turned out to be 85 to 90 °C

So for CC(=O)N1CCN=C1Nc1cc(-c2ccccc2)nn1C , the logged melting point turned out to be 154 to 155 °C

So for CCCc1nc(SC(F)F)c(C(=O)O)n1Cc1ccc(-c2ccccc2S(=O)(=O)NC(=O)NCCC2=CCCCC2)cc1 , the logged melting point turned out to be 114 °C

So for O=[N+]([O-])c1cccc(-c2ccc3[nH]c(=S)n(Cc4ccccc4)c3c2)c1 , the logged melting point turned out to be 244 to 245 °C

So for CCOC(=O)C(C)(C)Oc1ccc(CCNC(=O)CCc2cc(C(C)(C)C)c(O)c(C(C)(C)C)c2)cc1 , the logged melting point turned out to be 168 to 171 °C

So for Cc1cccc2c1N(CC(=O)N1CC3CCC(CC3)C1)C(=O)C(NC(=O)Nc1cccc(Cc3nnn[nH]3)c1)N=C2c1ccccc1F (stereo not drawn) , the logged melting point turned out to be 154 to 168 °C

So for Clc1ccc(C2(c3ccccc3)OC2n2ccnc2)c(Cl)c1 (stereo not drawn) , the logged melting point turned out to be 135 to 137 °C

So for CC1(N2Cc3cc(CNC(=O)c4ccc(OC(F)(F)F)cc4)ccc3C2=O)CCC(=O)NC1=O (stereo not drawn) , the logged melting point turned out to be 224 to 226 °C

So for O=c1[nH]c2sccc2c(=O)o1 , the logged melting point turned out to be 233 °C

---

# melting point values compiled below

Worked examples follow.
Cc1cccc(-n2c(-c3sc(NC(=O)c4ccccc4)nc3-c3ccccc3)nc3ccccc3c2=O)c1
> 275 °C
O=Cc1c(OCc2ccccc2)ccc2ccccc12
120 to 121 °C
CCCCCCCCCC[C@H](O)c1ccc2ccccc2c1
53 to 54 °C
COc1ccccc1N1CCN(CC2(C)N=C(c3cccnc3)NC2=O)CC1 (centres undefined)
159 to 162 °C

So for O=C(CCN1CCN(Cc2ccccc2)CC1)c1ccc2[nH]c(=O)oc2c1 , the logged melting point turned out to be > 300 °C

So for CN(C1CCN(CCC(F)(F)F)CC1)S(=O)(=O)c1ccc(Nc2nccc(Nc3ccc(F)c(F)c3)n2)cc1 , the logged melting point turned out to be 202 to 203 °C

So for O=c1oc(-c2ccc3c(c2)OCCO3)cc(O)c1C(CC1CC1)SC1CCCC1 (centres undefined) , the logged melting point turned out to be 80 to 82 °C

So for COc1ccc2[nH]c3c(c2c1)CCS(=O)(=O)CCC3 , the logged melting point turned out to be 231 to 233 °C

So for N#Cc1cc(C2=Nc3cc(O)c(-c4ccc(F)cc4)cc3NC(=O)C2)ccn1 , the logged melting point turned out to be 164 °C

---

RECORDED ENDPOINT: melting point

CC(=O)Nc1cccc(-c2ccc3nc(-c4cccnc4N)n(-c4ccc(CNS(=O)(=O)c5ccccc5)cc4)c3n2)c1
180 to 182 °C

So for CCOC(=O)c1cnc2ccc(CC)nc2c1Nc1ccc(OC)cc1 , the logged melting point turned out to be 145 to 148 °C

So for Cc1nc(C)c(-c2cncc(OC3SCC(O)C(O)C3O)c2)s1 (stereo not given) , the logged melting point turned out to be 150 °C

So for Cc1oc(-c2ccccc2)nc1CCOc1ccc(CC2SC(=O)NC2=O)c2sccc12 (stereo not given) , the logged melting point turned out to be 196 to 197 °C

So for COC(=O)c1cn2c(-c3ccc(-c4ccccc4)cc3)csc2n1 , the logged melting point turned out to be 186 to 188 °C

So for COc1ccc(C2(c3ccc(OC)cc3)CC(C)N=C2NC(=O)c2cc(C)[nH]n2)cc1 (stereo not given) , the logged melting point turned out to be 173 °C

So for O=c1[nH]c2sc3ccc(I)cc3c2[nH]c1=O , the logged melting point turned out to be > 300 °C

So for CC(=O)NC[C@H]1CN(c2ccc(N3CCN(CCN4CCCCC4)CC3)c(F)c2)C(=O)O1 , the logged melting point turned out to be 169 to 170 °C

So for CN1CCN(CC(=O)Nc2cccc3c2C(=O)c2c-3n[nH]c2-c2ccc(N(C)C)cc2)CC1 , the logged melting point turned out to be > 300 °C

So for CSc1ccc2cc(Cc3ccccc3)cc(CCNC(C)=O)c2c1 , the logged melting point turned out to be 126 to 128 °C

---

RECORDED ENDPOINT: melting point

So for N/C(=C1/Sc2ccccc2C1=O)c1ccccc1Cl , the logged melting point turned out to be 167 to 168 °C

So for CCOC(=O)c1nsc(=O)o1 , the logged melting point turned out to be 49 °C

So for O=C1CCC(c2ccccc2)(c2ccccc2)[C@@H]2CN(C(=O)Cc3ccccc3)C[C@H]12 (racemic) , the logged melting point turned out to be 173 °C

So for O=C(c1ccccc1SSc1ccccc1C(=O)N1CCSCC1)N1CCSCC1 , the logged melting point turned out to be 90 to 92 °C

So for COc1ccc(/C=C(\C)C(=O)O)cc1 , the logged melting point turned out to be 178 to 182 °C

So for CCOc1ccc(C(=O)NC2N(C)C(c3ccc(F)cc3)=NC2(C(F)(F)F)C(F)(F)F)cc1 (stereo not given) , the logged melting point turned out to be 115 to 116 °C

---

# melting point values compiled below

CN1CCC(c2c[nH]c3ccc(-c4cccs4)cc23)C1 (stereo not given)
166 to 168 °C

So for CS(=O)(=O)Nc1cc(NC(=O)CN)c([N+](=O)[O-])cc1Oc1ccccc1 , the logged melting point turned out to be 208 to 210 °C

So for C#CCC(Oc1cccc(C)c1C)C1=NCCN1 (stereo not given) , the logged melting point turned out to be 70 to 73 °C

So for CCS(=O)(=O)Nc1cc(-c2ncnc(NOC)c2Cl)c(F)cc1C#N , the logged melting point turned out to be 188 to 189 °C

So for CCCn1c(I)c2c3c(cccc31)C1CC(NC(=O)N(CC)CC)CN(C)C1C2 (stereo not given) , the logged melting point turned out to be 114 to 117 °C

So for Cc1oc2ccccc2c1OC(C)(C)C(N)=O , the logged melting point turned out to be 116 to 120 °C

So for CCn1cc(C(=O)NCc2ccc(Cl)cc2)c(=O)c2cc(I)sc21 , the logged melting point turned out to be 214 to 218 °C

So for Cc1cc(C2=CO[C@@](c3cc(Cl)cc(Cl)c3)(C(F)(F)F)C2)ccc1C(=O)NCC(=O)NCC(F)(F)F , the logged melting point turned out to be 120 to 155 °C

---

# melting point values compiled below

Cc1cc(C(=O)N[C@@H](CC(C)C)C(=O)N[C@@H](C(C)C)[C@@H](O)c2c(-c3ccccc3)c2=O)n(C)n1
115 to 118 °C
Nc1ccc2c(c1)C(=O)N(CCO)CO2
94 to 96 °C
CC(C)(C)c1ccccc1N1CCN(C(=O)C2CCC(=O)N2CC(=O)O)CC1 (centres undefined)
273 °C
O=c1[nH]c2ccccc2c(=O)n1CCCCNCCCn1c(=O)[nH]c2ccccc2c1=O
140 °C
CN(C)c1cc2c(cc1Cl)NC(=O)CC(c1cccc(-c3nc(CN4CCOCC4)cs3)c1)=N2
138 to 143 °C
CC(=O)OC(CN1C(=O)N(C(C)=O)C2(CC(C)(C)N(C)C(C)(C)C2)C1=O)CN1C(=O)N(C(C)=O)C2(CC(C)(C)N(C)C(C)(C)C2)C1=O
105 to 108 °C
CN1C(=O)CC[C@]2(C)c3ccc(Sc4nc(-c5ccccc5)cc5ccccc45)cc3CC[C@@H]12
183 to 189 °C
CN(C(=O)CNc1nc(-c2ccc(C(F)(F)F)cc2)nc(-c2ccccc2)c1Cl)C1CC1
188 to 189 °C

So for COc1nc(C)cnc1NS(=O)(=O)c1cccnc1-c1ccc(OCC(C)(C)O)cc1 , the logged melting point turned out to be 156 to 157 °C

So for O=[N+]([O-])c1cnc2ccc(Sc3ccccc3)cn12 , the logged melting point turned out to be 108 to 109 °C

So for COc1cccc(C23CCCC=C2C(=O)N(CCc2ccccc2)C(=O)C3)c1 (centres undefined) , the logged melting point turned out to be 134 to 135 °C

So for Cn1c(C(=O)Nc2cc3c(cn2)[nH]c2ccccc23)cc2ccccc21 , the logged melting point turned out to be 300 to 301 °C

So for O=C1CC(=O)OC2(O1)SC=CS2 , the logged melting point turned out to be 59 to 60 °C

So for CC(C)Cc1nc2ccc(Br)cc2c(-c2ccccc2)c1CO , the logged melting point turned out to be 116 to 118 °C

So for O=C(O)c1ccc([N+](=O)[O-])cc1NC(=O)C(F)(F)F , the logged melting point turned out to be 198 °C

So for NC(=O)c1cccc(C=CC(=O)O)c1 , the logged melting point turned out to be > 260 °C

So for CC(C)(C)c1nc(C=NO)ncc1O , the logged melting point turned out to be 205 to 220 °C

So for COc1cc(N)c(Cl)cc1C(=O)NC1CCN(CCNC(=O)C(O)c2ccccc2)CC1OC (centres undefined) , the logged melting point turned out to be 228 °C
